B1: LINE1-full (parent)
chain: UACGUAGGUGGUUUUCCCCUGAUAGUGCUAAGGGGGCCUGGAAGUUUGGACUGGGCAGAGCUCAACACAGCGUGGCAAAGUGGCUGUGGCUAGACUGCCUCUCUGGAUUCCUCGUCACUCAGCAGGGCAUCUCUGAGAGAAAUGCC

Variants of: B1
EXPERIMENT_DESCRIPTION: self-cleavage, relative activity (ratio to wild type); higher = more cleavage; in vitro, sequencing; the parent is a self-cleaving ribozyme
MEASURED_QUANTITY: self-cleavage
Output spec: single numeric token, no unit.

# SEQUENCE_TEXT, self-cleavage
records = [
    ("CACGUAGGUGGUUUUCCCCUGAUAGUGCUAAGGGGGCCUGGAAGUUUGGACUGGGCAGAGCUCAACACAGCGUGGCAAAGUGGCUGAGGCUAGACUGCCUCUCUGGAUUCCUCGUCACUCAGCAGGGCAUCUCUGAGAGAAAUGCC [U1C U87A]", 0.23),
    ("UACGUAGGUGGUUUUCCCCUGAUAGUGCUAAGGGGGCCUGGAAGUUUGGGCUGGGCAGAGCUCAACACAGCGUGGCAAAGUGGCUGUGGCUAUACUGCCUCUCUGGAUUCCUCGUCACUCAGCAGGGCAUCUCUGAGAGAAAUGCC [A50G G93U]", 0.05),
    ("UACGUAGGUGGUUUUCCCCCGAUAGUGCUAAGGGGGCCUGGAAGUUUGGACGGGGCAGAGCUCAACACAGCGUGGCAAAGUGGCUGUGGCUAGACUGCCUCUCUGGAUUCCUCGUCACUCAGCAGGGCAUCUCUGAGAGAAAUGCC [U20C U52G]", 1.81),
]

Recorded result, UACGUAGGUGGUUUUCCCCUGAUAGUGCUAAGGGGGCCUGGAAGUUUGGACUGGGCAGAGCUUAACACAGCGUGGCAAAGUGGCUGUGGCUAGACUGCCUCUCUGGAUUCCUCGUCACUCAGCAGGGCAUCUCUGAGAGAAAUGCC [C63U] , self-cleavage: 0.36

Recorded result, UACGUAGGUGGUUUUCCCCUGAUAGUGCUAAGGGGGCCUGGAAGUUUGGACUGGGCAGAGCUCAACACAGCGUGGCAAUGUGGCUGUGGCUAGACUGCCUCUCUGGAUUCCUCGUCACUCAGCAGGGCAUCUCUGAGAGGAAUGCC [A79U A140G] , self-cleavage: 1.85

Recorded result, UACGUAGGUGGUUUCCCCCUGAUAGUGCUAAGGGGGCCUGGAAGUUUGGACUGGGCAGAGCUCAACACAGCGUGGAAAAGUGGCUGUGGCUAGACUGCCUCUCUGGAUUCCUCGUCACUCAGCAGGGCAUCUCUGAGAGAAAUGCC [U15C C76A] , self-cleavage: 1.2

Recorded result, UACGUAGGUGGUUUUCCCCUGAUAGUGCUAAGGGGGCCUGGAAGUUUGGACUGGGCAGAGCUCAACACAGCGUGGCAAAGUGGCUGUGGCUAGGCUGCCUCUCUGGAUUCCUCGUCACUCAGCAGGGCAACUCUGAGAGAAAUGCC [A94G U130A] , self-cleavage: 0.34

Recorded result, UACGUAGGUGGUUUUCCCCUGAUAGUGCUAAGCGGGCCUGGAAGCUUGGACUGGGCAGAGCUCAACACAGCGUGGCAAAGUGGCUGUGGCUAGACUGCCUCUCUGGAUUCCUCGUCACUCAGCAGGGCAUCUCUGAGAGAAAUGCC [G33C U45C] , self-cleavage: 1.95

Recorded result, UACGUAGGUGGUUUUCCCCUGAUAGUGCUAAGGGGGCCUGGAAGUUUGGACUGGGCAGAGCUCAACACAGCGUGGCAAAGGGGCUGUGGCUAGACUGCCUCUCUGGAUUCCUCGUCACUCAGCAGGGCAUCUCUGGGAGAAAUGCC [U81G A136G] , self-cleavage: 1.65

Recorded result, AACGUAGGUGGUUUUCCCCUGAUAGUGCUAAGGGGGCCUGGAAGUUUGGACUGGGCAGAGCUCAACACAGCGUGGCAAAGUGGCUGUGGCUUGACUGCCUCUCUGGAUUCCUCGUCACUCAGCAGGGCAUCUCUGAGAGAAAUGCC [U1A A92U] , self-cleavage: 0.32

Recorded result, UACGUAGGUGGUUUUCCCCUGAUAGUGCUAAGGGGGCCUGGAAGUUUGGACUGGGCAGAGCUCAACACAGCGUGGCAAAGGGGCUGUGGCUAGACUGCCUCUCAGGAUUCCUCGUCACUCAGCAGGGCAUCUCUGAGAGAAAUGCC [U81G U104A] , self-cleavage: 1.23

Recorded result, UACGUAGGUGGUUUUCCCCUGAUAGUGCUAAGGGGGCCUGGAAGUUUUGACUGGGCAGAGCUCAACACAGCGUGGCAAAGUGGCAGUGGCUAGACUGCCUCUCUGGAUUCCUCGUCACUCAGCAGGGCAUCUCUGAGAGAAAUGCC [G48U U85A] , self-cleavage: 0.1

Recorded result, UACGUAGGUGGUUUUCCCCUGAUAGUGCUAAGGGGGCCUGGAAGUUUGGACUGGGCAGAGCUCAACACAGCGUGGCAAAGUGGCUGUGGCUAGACUGCCUCUCUGGAUUCCUCGUCUCUCAGCAGGGCAUCCCUGAGAGAAAUGCC [A117U U132C] , self-cleavage: 1.37
